System: Sagittaria pygmaea, L.
Assay: Preemergence weed control under flooded paddy conditions, SAGPY (Arrowhead (Pygmaea)); further: meaning of each grade not given here
Type: in vivo
Conditions: Rate 0.0320 kg/ha; preemergence weeds, flooded paddy; rated three to four weeks after treatment

>  <COMPOUND>
Cn1c(C(F)(F)F)cc(=O)n(-c2ccc3snc(C(=O)NS(=O)(=O)CCl)c3c2)c1=O [Example 334]

>  <herbicidal effect rating, SAGPY>
0.0

$$$$
>  <COMPOUND>
Cn1c(C(F)(F)F)cc(=O)n(-c2ccc3snc(C(=O)CBr)c3c2)c1=O [Example 337]

>  <herbicidal effect rating, SAGPY>
0.0

$$$$
>  <COMPOUND>
Cn1c(C(F)(F)F)cc(=O)n(-c2ccc3snc(C(=O)Nc4cc(C(C)(C)C)on4)c3c2)c1=O [Example 331]

>  <herbicidal effect rating, SAGPY>
0.0

$$$$
>  <COMPOUND>
C[C@@H](Br)[C@H](Br)c1nsc2ccc(-n3c(=O)cc(C(F)(F)F)n(C)c3=O)cc12 [Example 303]

>  <herbicidal effect rating, SAGPY>
2.0

$$$$
>  <COMPOUND>
CNC.Cn1c(C(F)(F)F)cc(=O)n(-c2ccc3snc(CSCC(=O)NS(C)(=O)=O)c3c2)c1=O [Example 298]

>  <herbicidal effect rating, SAGPY>
0.0

$$$$
>  <COMPOUND>
CC(C)Oc1cccc(-c2nsc3ccc(-n4c(=O)cc(C(F)(F)F)n(C)c4=O)cc23)c1 [Example 328]

>  <herbicidal effect rating, SAGPY>
2.5

$$$$

----------
System: Oryza sativa, (L.) Tebonnet
Assay: Rice tolerance to post-transplant applications under flooded paddy conditions (Example 187), ORYSAT (Rice, Tebonnet); on herbicidal effect rating ORYSAT: meaning of each grade not given here
Settings: Rate 0.0620 kg/ha, rated 3-4 weeks after treatment
Listed here: items and their measured herbicidal effect rating ORYSAT.
MEASUREMENT_NAME: herbicidal effect rating ORYSAT

>  <MOLECULE>
Cc1ccc(OCC(=O)NS(=O)(=O)C(C)C)c(-c2nsc3ccc(-n4c(=O)cc(C(F)(F)F)n(C)c4=O)cc23)c1

>  <STUDY_SYSTEM>
Oryza sativa, (L.) Tebonnet

>  <RESULT>
3.0

$$$$
>  <MOLECULE>
CCCS(=O)(=O)NC(=O)COc1ccccc1-c1nsc2ccc(-n3c(=O)cc(C(F)(F)F)n(C)c3=O)cc12

>  <STUDY_SYSTEM>
Oryza sativa, (L.) Tebonnet

>  <RESULT>
7.0

$$$$
>  <MOLECULE>
Cc1nsc2ccc(-n3c(=O)cc(C(F)(F)F)n(CCF)c3=O)cc12

>  <STUDY_SYSTEM>
Oryza sativa, (L.) Tebonnet

>  <RESULT>
1.0

$$$$
>  <MOLECULE>
Cn1c(C(F)(F)F)cc(=O)n(-c2ccc3snc(/C=C/C(=O)c4ccccc4)c3c2)c1=O

>  <STUDY_SYSTEM>
Oryza sativa, (L.) Tebonnet

>  <RESULT>
0.0

$$$$
>  <MOLECULE>
Cn1c(C(F)(F)F)cc(=O)n(-c2ccc3snc(-c4ccccc4OCC(=O)C(C)(C)C)c3c2)c1=O

>  <STUDY_SYSTEM>
Oryza sativa, (L.) Tebonnet

>  <RESULT>
4.0

$$$$
>  <MOLECULE>
C=CCOC(=O)/C=C/c1nsc2ccc(-n3c(=O)cc(C(F)(F)F)n(C)c3=O)cc12

>  <STUDY_SYSTEM>
Oryza sativa, (L.) Tebonnet

>  <RESULT>
3.0

$$$$
>  <MOLECULE>
Cc1ccc(OCC(=O)OCC2(c3ccccc3)CC2)c(-c2nsc3ccc(-n4c(=O)cc(C(F)(F)F)n(C)c4=O)cc23)c1

>  <STUDY_SYSTEM>
Oryza sativa, (L.) Tebonnet

>  <RESULT>
0.0

$$$$
>  <MOLECULE>
Cc1ccc(OC(C)(C)C(=O)OCC(F)(F)F)c(-c2nsc3ccc(-n4c(=O)cc(C(F)(F)F)n(C)c4=O)cc23)c1

>  <STUDY_SYSTEM>
Oryza sativa, (L.) Tebonnet

>  <RESULT>
2.0

$$$$
>  <MOLECULE>
Cc1ccc(OCC(=O)c2ccc(OC(F)F)cc2)c(-c2nsc3ccc(-n4c(=O)cc(C(F)(F)F)n(C)c4=O)cc23)c1

>  <STUDY_SYSTEM>
Oryza sativa, (L.) Tebonnet

>  <RESULT>
0.0

$$$$
>  <MOLECULE>
CCOC(=O)C(F)(F)Oc1ccc(C)cc1-c1nsc2ccc(-n3c(=O)cc(C(F)(F)F)n(C)c3=O)cc12

>  <STUDY_SYSTEM>
Oryza sativa, (L.) Tebonnet

>  <RESULT>
1.0

$$$$
>  <MOLECULE>
Cc1ccc(OC(C)C(=O)c2ccc(C)c(C)c2)c(-c2nsc3ccc(-n4c(=O)cc(C(F)(F)F)n(C)c4=O)cc23)c1 (centres unmarked)

>  <STUDY_SYSTEM>
Oryza sativa, (L.) Tebonnet

>  <RESULT>
0.0

$$$$
>  <MOLECULE>
COCCOC(=O)C(C)(C)Oc1ccc(C)cc1-c1nsc2ccc(-n3c(=O)cc(C(F)(F)F)n(C)c3=O)cc12

>  <STUDY_SYSTEM>
Oryza sativa, (L.) Tebonnet

>  <RESULT>
3.0

$$$$
>  <MOLECULE>
CCCS(=O)(=O)NC(=O)COc1ccc(C)cc1-c1nsc2ccc(-n3c(=O)cc(C(F)(F)F)n(C)c3=O)cc12

>  <STUDY_SYSTEM>
Oryza sativa, (L.) Tebonnet

>  <RESULT>
6.0

$$$$
>  <MOLECULE>
Cc1ccc(C(=O)C(C)Oc2ccccc2-c2nsc3ccc(-n4c(=O)cc(C(F)(F)F)n(C)c4=O)cc23)cc1C (centres unmarked)

>  <STUDY_SYSTEM>
Oryza sativa, (L.) Tebonnet

>  <RESULT>
0.0

$$$$

----------
System: Oryza sativa, (L.) Tebonnet
Test: Rice tolerance to post-transplant applications under flooded paddy conditions (Example 187), ORYSAT (Rice, Tebonnet)
Conditions: Rate 0.1250 kg/ha, rated three to four weeks after treatment
# Lookup of reported ORYSAT herbicidal effect rating keyed by entry
MEASUREMENT_NAME: ORYSAT herbicidal effect rating

>  <COMPOUND>
COP(=O)(Cc1nsc2ccc(-n3c(=O)cc(C(F)(F)F)n(C)c3=O)cc12)OC [Example 262]

>  <QUANTITATIVE_READOUT>
0.0

$$$$
>  <COMPOUND>
Cn1c(C(F)(F)F)cc(=O)n(-c2ccc3snc(C=C(F)Br)c3c2)c1=O [Example 286]

>  <QUANTITATIVE_READOUT>
1.0

$$$$
>  <COMPOUND>
C#CCn1c(C(F)(F)F)cc(=O)n(-c2ccc3snc(C)c3c2)c1=O [Example 217]

>  <QUANTITATIVE_READOUT>
3.0

$$$$
>  <COMPOUND>
CCOc1nc(C(F)(F)F)cc(=O)n1-c1ccc2snc(-c3cc(C)ccc3OCC(=O)OC)c2c1 [Example 246]

>  <QUANTITATIVE_READOUT>
2.0

$$$$
>  <COMPOUND>
COC(=O)COc1ccc(-c2nsc3ccc(-n4c(=O)cc(C(F)(F)F)n(C)c4=O)cc23)cc1 [Example 257]

>  <QUANTITATIVE_READOUT>
1.0

$$$$
>  <COMPOUND>
Cn1c(C(F)(F)F)cc(=O)n(-c2ccc3snc(COC(CF)CF)c3c2)c1=O [Example 207]

>  <QUANTITATIVE_READOUT>
7.0

$$$$
>  <COMPOUND>
Cn1c(C(F)(F)F)cc(=O)n(-c2ccc3snc(C(Br)C#N)c3c2)c1=O (centres unmarked) [Example 264]

>  <QUANTITATIVE_READOUT>
0.0

$$$$
>  <COMPOUND>
CC(C)OP(=O)(Cc1nsc2ccc(-n3c(=O)cc(C(F)(F)F)n(C)c3=O)cc12)OC(C)C [Example 263]

>  <QUANTITATIVE_READOUT>
0.0

$$$$

----------
Tested on: Monochoria vaginalis, Presl.
Experiment: Preemergence weed control under flooded paddy conditions, MOOVA (Monochoria)
Format: in vivo
Conditions: 0.0620 kg/ha; preemergence, flooded paddy; rated three to four weeks after treatment
Recorded MOOVA herbicidal rating, one value per entry.

>  <MOLECULE>
CC(C)N(C(C)C)S(=O)(=O)NC(=O)COc1ccccc1-c1nsc2ccc(-n3c(=O)cc(C(F)(F)F)n(C)c3=O)cc12 [Example 512]

>  <MOOVA herbicidal rating>
9.0

$$$$
>  <MOLECULE>
COc1ccc(C)cc1-c1nsc2cc(F)c(-n3c(=O)cc(C(F)(F)F)n(C)c3=O)cc12 [Example 462]

>  <MOOVA herbicidal rating>
9.0

$$$$
>  <MOLECULE>
Cn1c(C(F)(F)F)cc(=O)n(-c2ccc3snc(COC(=O)c4ccc([N+](=O)[O-])o4)c3c2)c1=O [Example 476]

>  <MOOVA herbicidal rating>
6.0

$$$$
>  <MOLECULE>
Cc1ccc(OC(C)(C)C(=O)OC(C)(C)C)c(-c2nsc3ccc(-n4c(=O)cc(C(F)(F)F)n(C)c4=O)cc23)c1 [Example 514]

>  <MOOVA herbicidal rating>
9.0

$$$$
>  <MOLECULE>
Cn1c(C(F)(F)F)cc(=O)n(-c2ccc3snc(C(C)(C)C(=O)NS(C)(=O)=O)c3c2)c1=O [Example 488]

>  <MOOVA herbicidal rating>
9.0

$$$$
>  <MOLECULE>
Cn1c(C(F)(F)F)cc(=O)n(-c2ccc3snc(C(C)(C)C(=O)O)c3c2)c1=O [Example 466]

>  <MOOVA herbicidal rating>
7.0

$$$$
